Protocol Details: Cmax in New Zealand rabbit at 80 mg/kg, sc administered every 6 hrs for 4 days measured 16th dose by RP-HPLC/MS/MS
Assay type: ADME, organism-based, Oryctolagus cuniculus
Parameters: dose 80 mg/kg, route subcutaneous
Setup Conditions: in vivo
Measured Parameter: Cmax (µg/mL)

[[record]]
smiles_entry = "Nc1nc(/C(=N/O)C(=O)N[C@@H]2C(=O)N3C(C(=O)O)=C(/C=C4\\CCN([C@@H]5CCNC5)C4=O)CS[C@H]23)ns1"
measured_parameter = "Cmax"
experimental_result = 58.9


====

Protocol Details: Cmax in New Zealand rabbit at 80 mg/kg, sc administered every 6 hrs for 4 days measured after 1 hr post first dose by RP-HPLC/MS/MS
Type: ADME, organism-based, Oryctolagus cuniculus
Design: dose 80 mg/kg, route subcutaneous
Setup Conditions: in vivo
Measured Parameter: Cmax (µg/mL)

[[record]]
smiles_entry = "Nc1nc(/C(=N/O)C(=O)N[C@@H]2C(=O)N3C(C(=O)O)=C(/C=C4\\CCN([C@@H]5CCNC5)C4=O)CS[C@H]23)ns1"
experimental_result = 83.3


====

Protocol Details: Plasma concentration in New Zealand rabbit osteomyelitis model at 40 mg/kg, sc administered every 6 hrs for 1 week measured after 3 hrs post last dose
Measured Parameter: concentration at 3 h (ng/mL)

[[record]]
molecule = "Nc1nc(/C(=N/O)C(=O)N[C@@H]2C(=O)N3C(C(=O)O)=C(/C=C4\\CCN([C@@H]5CCNC5)C4=O)CS[C@H]23)ns1 [CEFTOBIPROLE]"
measured_parameter = "concentration at 3 h"
experimental_result = 4900


====

Protocol Details: Cmax in human at 500 mg, infusion up to 1 hr
Setup Conditions: in vivo
Measured Parameter: Cmax (ng/mL)

[[record]]
compound = "Nc1nc(/C(=N/O)C(=O)N[C@@H]2C(=O)N3C(C(=O)O)=C(/C=C4\\CCN([C@@H]5CCNC5)C4=O)CS[C@H]23)ns1 [CEFTOBIPROLE]"
measured_parameter = "Cmax"
unit_annotation = "ng/mL"
experimental_result = 34200

